The reported measurements were obtained from paper PMC10584170.

- Tested on: P. falciparum female gametocytes
- assay-notes: P. falciparum Female Gametocyte Activation Assay (PfFGAA)
- Assay type: cell-based, Plasmodium falciparum
- measurement-context: Mean TOX HepG2 over FGAA IC50; GREEN = >10-fold; RED = <10-fold
So basically: Cytotox ratio Pf FGAA at 60 or higher? That is 1 (yes). Lower than 60? That is 0 (no).

[[record]]
compound = "O=C(O)CCSSc1cccc[n+]1[O-]"
test_system = "P. falciparum female gametocytes"
assigned_label = "1 (yes)"

[[record]]
compound = "O=C1Nc2ccccc2C1=NNC(=S)N1CCOCC1"
test_system = "P. falciparum female gametocytes"
assigned_label = "1 (yes)"

[[record]]
compound = "CCc1cc2c(Sc3nnc(N)s3)ncnc2s1"
test_system = "P. falciparum female gametocytes"
assigned_label = "1 (yes)"

[[record]]
compound = "Cc1cccc(Nc2nc(N[C@@H]3CCCNC3)nc3cc[nH]c(=O)c23)c1.O=C(O)C(F)(F)F"
test_system = "P. falciparum female gametocytes"
assigned_label = "0 (no)"

[[record]]
compound = "Cc1ccc(C(C(=O)Nc2ccc(N3CCNCC3)c(Cl)c2)c2ccccc2)cc1 (stereo not drawn)"
test_system = "P. falciparum female gametocytes"
assigned_label = "0 (no)"

[[record]]
compound = "Br.c1cc(Nc2nc(-c3ccc(-c4csc(Nc5ccncc5)n4)cc3)cs2)ccn1"
test_system = "P. falciparum female gametocytes"
assigned_label = "1 (yes)"

[[record]]
compound = "Cc1ccc(S(=O)(=O)N(CCCNCc2cccc(O)c2)c2ccccc2)cc1"
test_system = "P. falciparum female gametocytes"
assigned_label = "0 (no)"

[[record]]
compound = "Cc1sc2ncnc(Sc3nnc(N)s3)c2c1C"
test_system = "P. falciparum female gametocytes"
assigned_label = "0 (no)"

[[record]]
compound = "COc1ccc2nc(N=C3NC4(c5ccccc5)NC(=Nc5nc6ccc(OC)cc6[nH]5)NC4(c4ccccc4)N3)[nH]c2c1.O=C(O)C(F)(F)F (stereo not drawn)"
test_system = "P. falciparum female gametocytes"
assigned_label = "1 (yes)"

[[record]]
compound = "C=CCN(C(=O)c1ccc(Cl)c([N+](=O)[O-])c1)c1nc(-c2ccccc2)cs1"
test_system = "P. falciparum female gametocytes"
assigned_label = "1 (yes)"

[[record]]
compound = "Cn1c(Sc2ncnc3sccc23)nc2ccccc21"
test_system = "P. falciparum female gametocytes"
assigned_label = "1 (yes)"

[[record]]
compound = "CCN(CC)CCN(Cc1ccc(-c2ccc(C(F)(F)F)cc2)cc1)C(=O)Cn1cc(Cc2cnn(C)c2)c(=O)nc1/C=C/c1cccc(F)c1F.O=C(O)C(O)C(O)C(=O)O"
test_system = "P. falciparum female gametocytes"
assigned_label = "0 (no)"

[[record]]
compound = "CC(C)(CNC(=O)[C@H]1CCCCN1)c1nc(-c2ccc(Cl)c(O)c2)c(-c2ccncc2)[nH]1.Cl"
test_system = "P. falciparum female gametocytes"
assigned_label = "1 (yes)"

[[record]]
compound = "FC(F)(F)c1ccc2[nH]c(-c3ccc(-c4cccc(CNCCN5CCNCC5)c4)cc3)nc2c1.O=C(O)C(F)(F)F"
test_system = "P. falciparum female gametocytes"
assigned_label = "0 (no)"

[[record]]
compound = "Cc1ccc(-n2c(Sc3ncnc4sccc34)nnc2N2CCCC2)cc1"
test_system = "P. falciparum female gametocytes"
assigned_label = "1 (yes)"

[[record]]
compound = "c1ccc2sc(Sc3ncnc4sccc34)nc2c1"
test_system = "P. falciparum female gametocytes"
assigned_label = "1 (yes)"

[[record]]
compound = "Cc1cc(Nc2ncc(C#N)c(Nc3ccccc3C(N)=O)n2)ccc1N1CCN(C)CC1.Cl"
test_system = "P. falciparum female gametocytes"
assigned_label = "0 (no)"

[[record]]
compound = "[O-][s+]1c(Cl)c(-c2ccc(Cl)cc2)c2ccc(Cl)cc21 (stereo not drawn)"
test_system = "P. falciparum female gametocytes"
assigned_label = "1 (yes)"

